# EC50 values compiled below
target: GPR39 (Homo sapiens, UniProt O43194); assay: DMR positive allosteric modulator (PAM) experiments, compound and Zn^2+ interdependencies; format: cell-based; design: Full length human (AF034633), rat (DM091294) and mouse (BC085285) GPR39; expressed in transfected cells; conditions: [Zn2+] μM: 3e-5
Sequence (O43194 whole entry): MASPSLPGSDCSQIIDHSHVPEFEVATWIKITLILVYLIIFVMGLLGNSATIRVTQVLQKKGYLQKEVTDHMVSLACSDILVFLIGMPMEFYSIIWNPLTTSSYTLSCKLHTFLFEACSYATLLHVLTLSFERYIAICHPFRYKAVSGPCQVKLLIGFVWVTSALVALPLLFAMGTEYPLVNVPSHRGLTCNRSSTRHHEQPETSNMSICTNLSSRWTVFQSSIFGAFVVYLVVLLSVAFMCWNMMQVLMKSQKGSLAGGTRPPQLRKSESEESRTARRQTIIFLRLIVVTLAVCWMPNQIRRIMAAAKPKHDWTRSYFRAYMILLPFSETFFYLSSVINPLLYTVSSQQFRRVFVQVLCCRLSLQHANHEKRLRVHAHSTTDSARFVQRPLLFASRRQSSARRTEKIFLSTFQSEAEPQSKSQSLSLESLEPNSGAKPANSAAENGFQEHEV
readout.kind: EC50 (µM)

[[record]]
molecule = "Cc1nc(-c2nc3c(c(=O)[nH]2)CN(C(=O)c2cccc(Cl)c2F)CC3)cs1 [AZ7914]"
reading_unit = "µM"
test_value = 0.0063

[[record]]
molecule = "Cc1nc2c(C(=O)O)cnn2c(O)c1Cc1ccc(Cl)cc1 [AZ4237]"
reading_unit = "µM"
test_value = 0.003

[[record]]
molecule = "N#Cc1ccc(OCCn2ccnc2)c(OCCn2ccnc2)c1 [AZ1395]"
reading_unit = "µM"
test_value = 0.0027

